Reference for the values: ChEMBL document CHEMBL1123084

- experiment_notes: Half life in 0.067 M (D20), pH = 5.5
- Assay type: ADME
- conditions: 0.067 M (D2O)
value_kind: half-life

{"compound": "CC(O)CN(N=O)C(N)=O (stereo unspecified)", "measured_result": "6.83 h"}

* * *

- experiment_notes: Half life in 0.067 M (D20), pH = 6.5
- Assay type: ADME
- conditions: 0.067 M (D2O)

{"compound": "CC(O)CN(N=O)C(N)=O (stereo unspecified)", "half-life (min)": 26}
